These measurements were taken from the supplement of paper PMC4932681.

- Tested on: MCF-7 Tam1
- procedure.summary: relative IC50 (midpoint of fitted logistic curve, plateau may be below 50% inhibition; CellTiter-Glo viability); higher = less potent
- experimental.parameters: 4-OH-tamoxifen in medium 1 µM; 72 h
readout.type: relative IC50

INSERT INTO measurements (compound, target_system, assay_value) VALUES
  ('CC(C)(C)c1cc(NC(=O)Nc2ccc(-c3cn4c(n3)sc3cc(OCCN5CCOCC5)ccc34)cc2)no1 [Quizartinib (AC220)]', 'MCF-7 Tam1', '> 1 µM'),
  ('Cc1ccc(-n2nc(C(C)(C)C)cc2NC(=O)Nc2ccc(OCCN3CCOCC3)c3ccccc23)cc1 [Doramapimod (BIRB 796)]', 'MCF-7 Tam1', '> 10 µM'),
  ('CNCc1ccc(-c2[nH]c3cc(F)cc4c3c2CCNC4=O)cc1', 'MCF-7 Tam1', '> 10 µM'),
  ('CCCC(CCC)C(=O)O [Valproic acid]', 'MCF-7 Tam1', '> 10 µM'),
  ('Nc1nc2[nH]cc(CCc3ccc(C(=O)N[C@@H](CCC(=O)O)C(=O)O)cc3)c2c(=O)[nH]1 [Pemetrexed]', 'MCF-7 Tam1', '> 10 µM'),
  ('Cc1c(N)nc([C@H](CC(N)=O)NC[C@H](N)C(N)=O)nc1C(=O)N[C@H](C(=O)N[C@H](C)[C@@H](O)[C@H](C)C(=O)N[C@H](C(=O)NCCc1nc(-c2nc(C(=O)NCCC[S+](C)C)cs2)cs1)[C@@H](C)O)[C@@H](OC1OC(CO)C(O)C(O)C1OC1OC(CO)C(O)C(OC(N)=O)C1O)c1cnc[nH]1 (stereo partly drawn) [Bleomycin]', 'MCF-7 Tam1', '> 10 µM');

Output relative IC50 of CC(C)C(=O)Nc1ccc([N+](=O)[O-])c(C(F)(F)F)c1 [Flutamide] > 10 µM

Give the reported relative IC50 for this compound. Cc1cc(Nc2nc(N[C@@H](C)c3ncc(F)cn3)ncc2Cl)[nH]n1 [AZD1480] > 1 µM
